Source of measurements: patent US12077599

- assayed_target: T1, bovine serum albumin (bovine, UniProt P02769 25-607)
- T1 construct: Negative control coating in the alanine scanning ELISA; also called BSA
- T1 sequence (P02769 25-607 limits assumed): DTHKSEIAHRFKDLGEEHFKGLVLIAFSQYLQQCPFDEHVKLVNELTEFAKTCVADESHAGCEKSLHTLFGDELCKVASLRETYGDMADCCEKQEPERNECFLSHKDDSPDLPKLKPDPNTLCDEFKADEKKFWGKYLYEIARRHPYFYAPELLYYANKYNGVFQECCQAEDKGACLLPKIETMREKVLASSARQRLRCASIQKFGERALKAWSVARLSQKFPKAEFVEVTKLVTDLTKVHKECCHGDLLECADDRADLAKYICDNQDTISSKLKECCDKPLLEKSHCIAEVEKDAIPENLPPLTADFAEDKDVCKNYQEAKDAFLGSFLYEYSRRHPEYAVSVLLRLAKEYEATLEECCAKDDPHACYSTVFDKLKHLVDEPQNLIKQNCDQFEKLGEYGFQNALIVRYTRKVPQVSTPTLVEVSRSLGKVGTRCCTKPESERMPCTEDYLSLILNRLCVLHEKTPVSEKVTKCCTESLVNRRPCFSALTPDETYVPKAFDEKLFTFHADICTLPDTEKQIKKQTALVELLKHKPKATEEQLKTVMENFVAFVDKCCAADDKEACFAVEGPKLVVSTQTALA
- protocol_text: ELISA, BSA coated, ROS1-hFc mutant in solution, HRP anti-hFc
experimental_endpoint: binding result

Request: Dear colleague, I am looking for the recorded binding result of the following binder: alanine-substituted ROS1-hFc fusion protein, Gln44 replaced with alanine (Fc fusion, not shown: a dimerising Fc or GST; small tags and cut ends, also called Q44A) CVTNLGQALDLGTPHNLSEPCIQGCHFWNSVDQKNCALKCRESCEVGCSSAEGAYEEEVLENADLPTAPFASSIGSHNMTLRWKSANFSGVKYIIQWKYAQLLGSWTYTKTVSRPSYVVKPLHPFTEYIFRVVWIFTAQLQLYSPPSPSYRTHPHGVPETAPLIRNIESSSPDTVEVSWDPPQFPGGPILGYNLRLISKNQKLDAGTQRTSFQFYSTLPNTIYRFSIAAVNEVGEGPEAESSITTSSSAVQQEE
Response: no binding

Request: Dear colleague, I am looking for the recorded binding result of the following binder: alanine-substituted ROS1-hFc fusion protein, L47A mutant (Fc fusion, not shown: a dimerising Fc or GST; small tags and cut ends, also called L47A mutant of ROS1 protein) CVTNLGQQLDAGTPHNLSEPCIQGCHFWNSVDQKNCALKCRESCEVGCSSAEGAYEEEVLENADLPTAPFASSIGSHNMTLRWKSANFSGVKYIIQWKYAQLLGSWTYTKTVSRPSYVVKPLHPFTEYIFRVVWIFTAQLQLYSPPSPSYRTHPHGVPETAPLIRNIESSSPDTVEVSWDPPQFPGGPILGYNLRLISKNQKLDAGTQRTSFQFYSTLPNTIYRFSIAAVNEVGEGPEAESSITTSSSAVQQEE
Response: no binding

Request: Dear colleague, I am looking for the recorded binding result of the following binder: alanine-substituted ROS1-hFc fusion protein, Asp46 replaced with alanine (Fc fusion, not shown: a dimerising Fc or GST; small tags and cut ends, also called D46A) CVTNLGQQLALGTPHNLSEPCIQGCHFWNSVDQKNCALKCRESCEVGCSSAEGAYEEEVLENADLPTAPFASSIGSHNMTLRWKSANFSGVKYIIQWKYAQLLGSWTYTKTVSRPSYVVKPLHPFTEYIFRVVWIFTAQLQLYSPPSPSYRTHPHGVPETAPLIRNIESSSPDTVEVSWDPPQFPGGPILGYNLRLISKNQKLDAGTQRTSFQFYSTLPNTIYRFSIAAVNEVGEGPEAESSITTSSSAVQQEE
Response: no binding
